value.type: melting point

query: What melting point value was documented for this compound, Cc1cc(C)n(-c2cnc(CN(C)C)c(Nc3ccc(Cl)cc3)n2)n1 ?
result: 112 to 114 °C

query: What melting point value was documented for this compound, Cc1cc(C)n(-c2cncc(Nc3ccc(Cl)cc3)n2)n1 ?
result: 157 to 158.9 °C

query: What melting point value was documented for this compound, Cc1cccc(-c2cncc(Nc3ccc(Cl)cc3)n2)n1 ?
result: 186 to 188 °C

query: What melting point value was documented for this compound, CC(=O)NCc1ncc(-n2nc(C)cc2C)nc1Nc1ccc(Cl)cc1 ?
result: 228 to 230 °C

query: What melting point value was documented for this compound, Clc1ccc(Nc2cncc(-n3cccn3)n2)cc1 ?
result: 155 to 157 °C

query: What melting point value was documented for this compound, Cc1cc(C)n(-c2cnc(CN)c(Nc3ccc(Cl)cc3)n2)n1 ?
result: 156 to 160 °C

query: What melting point value was documented for this compound, COCc1ncc(-n2nc(C)cc2C)nc1Nc1ccc(Cl)cc1 ?
result: 105 to 108 °C

query: What melting point value was documented for this compound, COCc1ncc(Nc2ccc(Cl)cc2)nc1-n1nc(C)cc1C ?
result: 147 to 151 °C

query: What melting point value was documented for this compound, Clc1ccc(Nc2cncc(-n3cc4ccccc4n3)n2)cc1 ?
result: 249 to 252 °C

query: What melting point value was documented for this compound, Cc1cc(C)n(-c2cnc(/C=N/O)c(Nc3ccc(Cl)cc3)n2)n1 ?
result: 228 to 231 °C

query: What melting point value was documented for this compound, Clc1ccc(Nc2cncc(-n3ncc4ccccc43)n2)cc1 ?
result: 204 to 207 °C

query: What melting point value was documented for this compound, CCNc1ncc(Nc2ccc(Cl)cc2)nc1-n1nc(C)cc1C ?
result: 122 to 124 °C
